test system: Mtb (H37Rv); assay: MIC on Mtb (H37Rv) in liquid; format: cell-based, Mycobacterium tuberculosis; conditions: Mycobacterium tuberculosis; Mtb (H37Rv) in liquid; read-out: MIC
PROPERTY_MEASURED: MIC

// below: answered compounds
Report MIC for NNC(=O)c1ccncc1
< 0.3 µM

Report MIC for CCOC(=O)C1(CCCCCCOc2ccc(Cl)cc2)CO1 (stereo not shown)
> 250 µM

Continuing:
Report MIC for CN(C)C(=N)N=C(N)N
> 15000 µM

Report MIC for C1CCC(C(CC2CCCCN2)C2CCCCC2)CC1 (stereo not shown)
> 100 µM
